meta.source: PubChem BioAssay AID1645871

Details: pampa; pH 5.0; 30.0 min; 50.0 µM
readout: Papp (nm/s)

>>> recorded_number("CN1CCC(N(Cc2cccs2)c2ccccc2)CC1")
2540
>>> recorded_number("CSc1ccccc1N1CCN(CCCCCC(=O)NC2CCCc3ccccc32)CC1 (stereo not given)")
6280
>>> recorded_number("COc1ccc2[nH]c(S(=O)Cc3ncc(C)c(OC)c3C)nc2n1 (stereo not given)")
498
>>> recorded_number("O=C(Nc1cccnc1)c1cccs1")
1810
>>> recorded_number("CC1=Nc2cc(C(=O)NCCc3ccccc3)ccc2Sc2c(C)ccc(C)c21")
4660
>>> recorded_number("C=C1[C@@H](C)C2[C@H](Cc3ccccc3)NC(=O)[C@@]23C(/C=C/C[C@H](C)C[C@@](C)(O)/C=C/[C@@H]3OC(C)=O)[C@@H]1O (stereo not given in full)")
550

* * *

Settings: pampa; pH 5.0; 30.0 min; 50.0 µM
readout: Papp (×10⁻⁶ cm/s)

>>> recorded_number("CN(Cc1ccc(/C=C/C(=O)NO)cc1)CC12CC3CC(CC(C3)C1)C2")
108
>>> recorded_number("CC(C)(N)C(=O)N[C@H](COCc1ccccc1)C(=O)N1CCC2(CC1)CN(S(C)(=O)=O)c1ccccc12")
27.5
>>> recorded_number("COc1ccc(-n2nc(C3CCN(C(=O)C4CC4)CC3)[nH]c2=O)cc1")
130
>>> recorded_number("Nc1c(C(=O)Nc2ccc(Cl)cc2)sc2nc3c(cc12)N1CCC3CC1")
140
>>> recorded_number("Cc1ccc(-n2ncc3c(NCCCn4ccnc4)ncnc32)cc1Cl")
559
>>> recorded_number("COc1ccccc1NC(=O)C1=C(C)Nc2c(C(=O)Nc3cccc(C)c3)cnn2C1c1ccccc1Cl (stereo not given)")
156
>>> recorded_number("CCc1ccc2ncc(C(=O)c3ccc(C)c(C)c3)c(N3CCC(C(N)=O)CC3)c2c1")
653
>>> recorded_number("CC(C)c1ccc(CC(=O)N2CCCc3ncc(C(=O)Nc4cccnc4)cc32)cc1")
932
>>> recorded_number("COCCNC(=O)[C@H]1C[C@H](Oc2ccccc2)CN1Cc1ccc2[nH]ccc2c1")
186
>>> recorded_number("CCOc1ccc(NC(=O)CC2C(=O)N(c3ccc(F)cc3)C(=O)N2CCc2sccc2C)cc1 (stereo not given)")
831
>>> recorded_number("COc1ccc(-c2nc3sc(CCNC(=O)C(C)(C)C)c(C)n3n2)cc1")
657
>>> recorded_number("CC(C)(C)CN1CCNc2cc(Nc3ccccc3)ncc2C1")
42.2
>>> recorded_number("O=C1CCc2cc(S(=O)(=O)Nc3ccc(F)c(Cl)c3)ccc2N1")
663
>>> recorded_number("COc1ccc(-n2nc(C)c([C@@H]3C=C[C@@H](NCc4cccc(Cl)c4)C3)c2C)cc1")
773
>>> recorded_number("O=C(O)c1ccc(N2C(=O)/C(=C/c3ccc(-c4ccc([N+](=O)[O-])cc4)o3)C=C2c2ccccc2)cc1")
37.5
>>> recorded_number("Cc1ccc(S(=O)(=O)Nc2nc3ccc(C)cc3nc2Nc2ccc3c(c2)OCO3)cc1")
334
>>> recorded_number("Nc1ncc(S(=O)(=O)N2CCN(c3ccccc3)CC2)cn1")
6.73
>>> recorded_number("Cc1cccc(S(=O)(=O)c2cn(Cc3ccccc3)c3cc(N4CCCCC4C)c(F)cc3c2=O)c1 (stereo not given)")
485
